FYI, the data here is from the kinase profiling compilation of Christmann-Franck et al. (2016).

# Assayed Target: PIK3CA (human) (UniProt P42336)
# Sequence (P42336 whole entry, looked up): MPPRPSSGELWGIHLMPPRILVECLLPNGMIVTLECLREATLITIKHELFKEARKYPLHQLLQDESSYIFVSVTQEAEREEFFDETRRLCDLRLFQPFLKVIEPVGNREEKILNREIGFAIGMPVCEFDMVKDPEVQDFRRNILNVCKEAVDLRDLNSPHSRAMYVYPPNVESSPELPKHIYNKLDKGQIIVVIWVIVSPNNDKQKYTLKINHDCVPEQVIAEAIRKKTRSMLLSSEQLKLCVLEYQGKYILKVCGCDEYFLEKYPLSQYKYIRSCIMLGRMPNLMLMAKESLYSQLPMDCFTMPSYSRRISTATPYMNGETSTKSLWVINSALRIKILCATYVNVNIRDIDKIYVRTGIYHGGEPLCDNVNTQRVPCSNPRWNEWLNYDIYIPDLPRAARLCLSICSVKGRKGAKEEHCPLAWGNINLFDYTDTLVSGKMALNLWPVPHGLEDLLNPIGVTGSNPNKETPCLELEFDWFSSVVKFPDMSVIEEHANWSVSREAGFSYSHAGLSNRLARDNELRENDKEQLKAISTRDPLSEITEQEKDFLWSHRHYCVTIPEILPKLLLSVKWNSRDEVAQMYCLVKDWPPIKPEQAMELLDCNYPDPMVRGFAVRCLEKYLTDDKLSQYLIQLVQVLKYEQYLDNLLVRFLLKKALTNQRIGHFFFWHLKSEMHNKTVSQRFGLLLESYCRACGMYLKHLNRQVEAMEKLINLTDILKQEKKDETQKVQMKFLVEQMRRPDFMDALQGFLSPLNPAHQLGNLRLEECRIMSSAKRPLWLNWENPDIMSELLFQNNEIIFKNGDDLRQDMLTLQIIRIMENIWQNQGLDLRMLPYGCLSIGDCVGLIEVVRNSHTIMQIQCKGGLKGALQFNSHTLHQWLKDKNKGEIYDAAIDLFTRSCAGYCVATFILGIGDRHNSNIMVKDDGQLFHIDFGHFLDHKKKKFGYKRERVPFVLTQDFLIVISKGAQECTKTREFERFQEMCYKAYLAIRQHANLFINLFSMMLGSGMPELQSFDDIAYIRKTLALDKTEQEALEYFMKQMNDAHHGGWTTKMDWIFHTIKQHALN
# Test Description: KINOMEscan competition binding
# Experimental Parameters: compound 10.0 µM
Measured kinase still bound, per cent of control, listed per entry for reference.
Please reply with the bare figure in % and do not write the unit itself.

Some compounds with recorded kinase still bound, per cent of control:
>>> recorded_number("Cc1ccc(NC(=O)c2cccc(C(C)(C)C#N)c2)cc1Nc1ccc2ncn(C)c(=O)c2c1")
100
>>> recorded_number("C=CC(=O)Nc1cccc(Nc2nc(N[C@H]3CC[C@H](N(C)C)CC3)nc3c2ncn3C(C)C)c1")
100
>>> recorded_number("O=C(NOC[C@H](O)CO)c1ccc(F)c(F)c1Nc1ccc(I)cc1F")
56
>>> recorded_number("C=CC(=O)Nc1cc(NC(=O)c2ccc(C)c(NC(=O)c3ccno3)c2)cc(C(F)(F)F)c1")
76
>>> recorded_number("Cc1ccc2nc(NCCN)c3ncc(C)n3c2c1")
100
>>> recorded_number("Cn1c(=O)n(-c2ccc(C(C)(C)C#N)cc2)c2c3cc(-c4cnc5ccccc5c4)ccc3ncc21")
2.8

[Q] State measured kinase still bound, per cent of control of the compound `OCCCNc1cc(-c2ccnc(Nc3cccc(Cl)c3)n2)ccn1` with PIK3CA (human) (UniProt P42336).
[A] 100

[Q] State measured kinase still bound, per cent of control of the compound `CCCS(=O)(=O)Nc1ccc(F)c(C(=O)c2c[nH]c3ncc(-c4ccc(Cl)cc4)cc23)c1F` with PIK3CA (human) (UniProt P42336).
[A] 94

[Q] State measured kinase still bound, per cent of control of the compound `C=CC(=O)Nc1cccc(Oc2nc(Nc3ccc(N4CCN(C)CC4)cc3OC)ncc2Cl)c1` with PIK3CA (human) (UniProt P42336).
[A] 100

---

# Assayed Target: UniProt O95747
# Sequence (O95747 whole entry, looked up): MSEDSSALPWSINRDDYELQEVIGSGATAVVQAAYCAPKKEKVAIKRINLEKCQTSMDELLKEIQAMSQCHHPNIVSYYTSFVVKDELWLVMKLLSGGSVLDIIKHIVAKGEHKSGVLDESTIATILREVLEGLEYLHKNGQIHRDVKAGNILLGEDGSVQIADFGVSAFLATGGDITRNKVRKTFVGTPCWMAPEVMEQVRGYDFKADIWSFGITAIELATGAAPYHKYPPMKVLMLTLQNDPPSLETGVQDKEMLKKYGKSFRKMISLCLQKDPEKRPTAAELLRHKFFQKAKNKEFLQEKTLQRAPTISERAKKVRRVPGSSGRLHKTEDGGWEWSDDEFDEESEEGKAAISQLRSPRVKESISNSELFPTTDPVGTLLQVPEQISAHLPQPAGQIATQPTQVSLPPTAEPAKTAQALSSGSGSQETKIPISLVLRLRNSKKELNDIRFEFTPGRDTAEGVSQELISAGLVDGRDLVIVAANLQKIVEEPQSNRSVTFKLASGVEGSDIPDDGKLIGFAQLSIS
# Test Description: KINOMEscan competition binding
# Experimental Parameters: compound 10.0 µM
Measured Endpoint: kinase still bound, per cent of control (%)
Please reply with the bare figure in % and do not write the unit itself.

Some compounds with recorded kinase still bound, per cent of control:
>>> recorded_number("Cc1ccc2nc(NCCN)c3ncc(C)n3c2c1")
100
>>> recorded_number("Cn1c(=O)n(-c2ccc(C(C)(C)C#N)cc2)c2c3cc(-c4cnc5ccccc5c4)ccc3ncc21")
100
>>> recorded_number("Cc1cc([C@@H](C)Nc2ccccc2C(=O)O)c2nc(N3CCOCC3)cc(=O)n2c1")
100

Please turn your attention to the following entry.
[Q] Give a short answer stating reported kinase still bound, per cent of control for `COc1cc(C(=O)NC2CCN(C)CC2)ccc1Nc1ncc2c(n1)N(C1CCCC1)CCC(=O)N2C(C)C` .
[A] 100

---

# Assayed Target: NUAK1 (human)
# Test Description: KINOMEscan competition binding
# Experimental Parameters: compound 10.0 µM
Measured Endpoint: kinase still bound, per cent of control (%)
Please reply with the bare figure in % and do not write the unit itself.

Some compounds with recorded kinase still bound, per cent of control:
>>> recorded_number("OCCCNc1cc(-c2ccnc(Nc3cccc(Cl)c3)n2)ccn1")
100
>>> recorded_number("Cn1c(=O)n(-c2ccc(C(C)(C)C#N)cc2)c2c3cc(-c4cnc5ccccc5c4)ccc3ncc21")
30
>>> recorded_number("Cc1ccc(NC(=O)c2cccc(C(C)(C)C#N)c2)cc1Nc1ccc2ncn(C)c(=O)c2c1")
100
>>> recorded_number("O=C1Nc2ccc(I)cc2/C1=C/c1cc(Br)c(O)c(Br)c1")
100

[Q] Give a short answer stating reported kinase still bound, per cent of control for `Cc1cc([C@@H](C)Nc2ccccc2C(=O)O)c2nc(N3CCOCC3)cc(=O)n2c1` .
[A] 100

[Q] Give a short answer stating reported kinase still bound, per cent of control for `Cc1ccc(C(=O)Nc2cccc(C(F)(F)F)c2)cc1Nc1cncc(C(N)=O)c1` .
[A] 100

[Q] Give a short answer stating reported kinase still bound, per cent of control for `Cc1ccc2nc(NCCN)c3ncc(C)n3c2c1` .
[A] 88

---

Measured kinase still bound, per cent of control, listed per entry for reference.
# Assayed Target: MAP2K2 (human)
# Test Description: KINOMEscan competition binding
# Experimental Parameters: compound 10.0 µM
Please reply with the bare figure in % and do not write the unit itself.

Some compounds with recorded kinase still bound, per cent of control:
>>> recorded_number("CCCS(=O)(=O)Nc1ccc(F)c(C(=O)c2c[nH]c3ncc(-c4ccc(Cl)cc4)cc23)c1F")
5.4
>>> recorded_number("N#Cc1c(NC(=O)c2cccc3ccccc23)sc2c1CCCC2")
100
>>> recorded_number("O=C(NC1CC1)c1cccc(-c2ccc3c(NC(=O)C4CC4)n[nH]c3c2)c1")
82
>>> recorded_number("Cc1ccc2nc(NCCN)c3ncc(C)n3c2c1")
77
>>> recorded_number("Cn1c(=O)n(-c2ccc(C(C)(C)C#N)cc2)c2c3cc(-c4cnc5ccccc5c4)ccc3ncc21")
100

[Q] Give a short answer stating reported kinase still bound, per cent of control for `CCC(=O)N1CCN(c2ccc(-n3c(=O)ccc4cnc5ccc(-c6cnc7ccccc7c6)cc5c43)cc2C(F)(F)F)CC1` .
[A] 100

[Q] Give a short answer stating reported kinase still bound, per cent of control for `Cc1ccc(NC(=O)c2cccc(C(C)(C)C#N)c2)cc1Nc1ccc2ncn(C)c(=O)c2c1` .
[A] 100

[Q] Give a short answer stating reported kinase still bound, per cent of control for `O=C1Nc2ccc(I)cc2/C1=C/c1cc(Br)c(O)c(Br)c1` .
[A] 74

[Q] Give a short answer stating reported kinase still bound, per cent of control for `Cc1cc([C@@H](C)Nc2ccccc2C(=O)O)c2nc(N3CCOCC3)cc(=O)n2c1` .
[A] 100

---

Measured kinase still bound, per cent of control, listed per entry for reference.
# Assayed Target: GSK3A (human)
# Test Description: KINOMEscan competition binding
# Experimental Parameters: compound 10.0 µM
Please reply with the bare figure in % and do not write the unit itself.

Some compounds with recorded kinase still bound, per cent of control:
>>> recorded_number("COc1cc(C(=O)NC2CCN(C)CC2)ccc1Nc1ncc2c(n1)N(C1CCCC1)C(C)CC(=O)N2C (centres undefined)")
100
>>> recorded_number("Nc1ccc(-c2ccc3ncc4ccc(=O)n(-c5cccc(C(F)(F)F)c5)c4c3c2)cn1")
100
>>> recorded_number("N#Cc1c(NC(=O)c2cccc3ccccc23)sc2c1CCCC2")
72
>>> recorded_number("CCCS(=O)(=O)Nc1ccc(F)c(C(=O)c2c[nH]c3ncc(-c4ccc(Cl)cc4)cc23)c1F")
54
>>> recorded_number("CN(C)C/C=C/C(=O)Nc1cccc(Nc2ncc3c(n2)N(C)c2ccccc2C(=O)N3C)c1")
69

[Q] Give a short answer stating reported kinase still bound, per cent of control for `CCN1CCN(Cc2ccc(Nc3ncc4c(n3)N(C)c3ccccc3C(=O)N4C)cc2C(F)(F)F)CC1` .
[A] 100

[Q] Give a short answer stating reported kinase still bound, per cent of control for `CC[C@@H]1C(=O)N(C)c2cnc(Nc3ccc(C(=O)NC4CCN(C)CC4)cc3OC)nc2N1C1CCCC1` .
[A] 100

[Q] Give a short answer stating reported kinase still bound, per cent of control for `C=CC(=O)Nc1cccc(Oc2nc(Nc3ccc(N4CCN(C)CC4)cc3OC)ncc2Cl)c1` .
[A] 100

[Q] Give a short answer stating reported kinase still bound, per cent of control for `C=CC(=O)Nc1cccc(Nc2nc(N[C@H]3CC[C@H](N(C)C)CC3)nc3c2ncn3C(C)C)c1` .
[A] 100

---

Measured kinase still bound, per cent of control, listed per entry for reference.
# Assayed Target: ITK (human)
# Test Description: KINOMEscan competition binding
# Experimental Parameters: compound 10.0 µM
Please reply with the bare figure in % and do not write the unit itself.

Some compounds with recorded kinase still bound, per cent of control:
>>> recorded_number("OCCCNc1cc(-c2ccnc(Nc3cccc(Cl)c3)n2)ccn1")
100
>>> recorded_number("Cc1cc([C@@H](C)Nc2ccccc2C(=O)O)c2nc(N3CCOCC3)cc(=O)n2c1")
98
>>> recorded_number("COc1cc(N2CCN(C)CC2)ccc1Nc1nc(N)c(C(=O)c2c(Cl)cccc2Cl)s1")
91
>>> recorded_number("CCOc1cc2ncc(C#N)c(Nc3ccc(OCc4ccccn4)c(Cl)c3)c2cc1NC(=O)/C=C/CN(C)C")
52
>>> recorded_number("CCCS(=O)(=O)Nc1ccc(F)c(C(=O)c2c[nH]c3ncc(-c4ccc(Cl)cc4)cc23)c1F")
100
>>> recorded_number("C=CC(=O)Nc1cc(NC(=O)c2ccc(C)c(NC(=O)c3ccno3)c2)cc(C(F)(F)F)c1")
93
>>> recorded_number("O=C1Nc2ccc(I)cc2/C1=C/c1cc(Br)c(O)c(Br)c1")
96
>>> recorded_number("Cc1ccc2nc(NCCN)c3ncc(C)n3c2c1")
100

[Q] Give a short answer stating reported kinase still bound, per cent of control for `N#Cc1c(NC(=O)c2cccc3ccccc23)sc2c1CCCC2` .
[A] 89

[Q] Give a short answer stating reported kinase still bound, per cent of control for `Cc1ccc(NC(=O)c2cccc(C(C)(C)C#N)c2)cc1Nc1ccc2ncn(C)c(=O)c2c1` .
[A] 100

[Q] Give a short answer stating reported kinase still bound, per cent of control for `C=CC(=O)Nc1cccc(Oc2nc(Nc3ccc(N4CCN(C)CC4)cc3OC)ncc2Cl)c1` .
[A] 0.55
